The reported measurements were obtained from patent US6632621B1.

assayed_target: CEGPCR3 receptor (Caenorhabditis elegans)
Sequence (P90745 whole entry): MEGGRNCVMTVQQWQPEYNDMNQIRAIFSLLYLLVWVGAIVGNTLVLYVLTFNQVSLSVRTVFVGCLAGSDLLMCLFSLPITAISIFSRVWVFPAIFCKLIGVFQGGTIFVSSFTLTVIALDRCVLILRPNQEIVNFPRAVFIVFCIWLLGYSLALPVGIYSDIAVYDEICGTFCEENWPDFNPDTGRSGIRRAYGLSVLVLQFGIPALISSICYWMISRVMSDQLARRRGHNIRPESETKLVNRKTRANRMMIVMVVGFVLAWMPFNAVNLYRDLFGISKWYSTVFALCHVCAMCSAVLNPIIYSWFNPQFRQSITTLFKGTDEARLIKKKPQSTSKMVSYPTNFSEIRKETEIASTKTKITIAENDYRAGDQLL
protocol_summary: [35S]GTPγS binding assay, membranes of CHO cells transiently transfected with CEGPCR3
Format: biochemical, C. elegans
measurement_context: EC50 range, Table 7; one range for the group of peptides; cells 24 h 37° C. then 24 h 28° C.
pEC50: −log10 of the molar value. Where no end group is shown, it is not given here.
This listing pairs substances with measured pEC50.

{"substance": "GGPQGPLRF-NH2 [GGPQGPLRF-NH2]", "observed_value": "6.40 to 6.82"}

Now examine the next entry.
### Prompt What reported pEC50 corresponds to GPSGPLRF-NH2 [GPSGPLRF-NH2] on CEGPCR3 receptor (Caenorhabditis elegans)?
### Response 6.40 to 6.82
